// Ranking score lookup, one value per entry
- target_of_assay: human NTCP (Homo sapiens)
- Sequence (Q14973 1-349): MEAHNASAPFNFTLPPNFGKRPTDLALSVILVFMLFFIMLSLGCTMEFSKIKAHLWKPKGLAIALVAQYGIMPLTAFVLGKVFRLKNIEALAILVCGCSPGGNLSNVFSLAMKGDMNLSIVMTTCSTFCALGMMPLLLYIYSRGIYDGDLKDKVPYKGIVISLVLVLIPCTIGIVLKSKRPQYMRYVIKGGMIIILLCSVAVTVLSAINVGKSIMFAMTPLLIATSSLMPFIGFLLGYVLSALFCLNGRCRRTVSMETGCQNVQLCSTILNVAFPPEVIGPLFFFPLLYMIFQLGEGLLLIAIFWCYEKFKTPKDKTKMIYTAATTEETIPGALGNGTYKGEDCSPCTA
- protocol_details: Screening taurocholate uptake assay (96-well, [14C]taurocholate, 10 µM drug)
- condition_context: ranking over the functional and the binding screening assay
Where a name gives a salt, the structure may show the parent alone.

- compound: "CCCN(CCC)C(=O)C(CCC(=O)O)NC(=O)c1ccccc1 (centres unmarked) [Proglumide]"
  target_of_assay: "human NTCP (Homo sapiens)"
  Ranking score: 231.221
- compound: "Cc1cc(C(C#N)c2ccc(Cl)cc2)c(Cl)cc1NC(=O)c1cc(I)cc(I)c1O (centres unmarked)"
  target_of_assay: "human NTCP (Homo sapiens)"
  Ranking score: 203.568
- compound: "CC(=O)O[C@]1(C(C)=O)CC[C@H]2[C@@H]3C=C(Cl)C4=CC(=O)CC[C@]4(C)[C@H]3CC[C@@]21C [Chlormadinone acetate]"
  target_of_assay: "human NTCP (Homo sapiens)"
  Ranking score: 87.43
- compound: "Cc1c(O)cccc1C(=O)N[C@@H](CSc1ccccc1)[C@H](O)CN1C[C@H]2CCCC[C@H]2C[C@H]1C(=O)NC(C)(C)C [Nelfinavir mesylate]"
  target_of_assay: "human NTCP (Homo sapiens)"
  Ranking score: 28.9828
- compound: "Nc1c2c(nc3ccccc13)CCCC2O.O=C(O)/C=C\\C(=O)O (racemic) [Hydroxytacrine maleate (R,S)]"
  target_of_assay: "human NTCP (Homo sapiens)"
  Ranking score: 180.3

* * *

- target_of_assay: human NTCP (Homo sapiens)
- protocol_details: Screening taurocholate uptake assay (96-well, [14C]taurocholate, 10 µM drug)
- condition_context: screening taurocholate uptake, 10 µM drug
Structures can show the parent of a compound that is named as a salt.
// B-score functional assay lookup, one value per entry
quantity_kind: B-score functional assay

- compound: "C#CCN(C)[C@H](C)Cc1ccccc1 [Selegiline hydrochloride]"
  quantitative_result: -1.141
- compound: "C=C1CC[C@@]2(O)[C@H]3Cc4ccc(O)c5c4[C@@]2(CCN3CC2CC2)[C@H]1O5 [Nalmefene hydrochloride]"
  quantitative_result: 0.055
- compound: "C[C@@H]1CCC[C@H](C)N1NC(=O)c1ccc(Cl)c(S(N)(=O)=O)c1 [Clopamide]"
  quantitative_result: -0.164
- compound: "O=C(Nc1ccc([N+](=O)[O-])cc1Cl)c1cc(Cl)ccc1O [Niclosamide]"
  quantitative_result: -3.546
- compound: "Cc1cc(C(C#N)c2ccc(Cl)cc2)c(Cl)cc1NC(=O)c1cc(I)cc(I)c1O (centres unmarked) [Closantel]"
  quantitative_result: -0.508
- compound: "Cc1ccnc2c1NC(=O)c1cccnc1N2C1CC1 [Nevirapine]"
  quantitative_result: -1.052
- compound: "NC(=O)OCCCc1ccccc1 [Phenprobamate]"
  quantitative_result: 0.708
- compound: "CC(CCc1ccccc1)NCC(O)c1ccc(O)c(C(N)=O)c1 (centres unmarked) [Labetalol hydrochloride]"
  quantitative_result: 2.094
- compound: "C=CCN1CC[C@]23c4c5ccc(O)c4O[C@H]2C(=O)CC[C@@]3(O)[C@H]1C5 [Naloxone hydrochloride]"
  quantitative_result: -0.111
- compound: "C=C1/C(=C\\C=C2/CCC[C@]3(C)[C@@H]([C@H](C)CCCC(C)C)CC[C@@H]23)C[C@@H](O)C[C@@H]1O [Alfacalcidol]"
  quantitative_result: -0.117
- compound: "CCCCOc1ccc(CC(=O)NO)cc1 [Bufexamac]"
  quantitative_result: -0.678
- compound: "CCCCN1CCCCC1C(=O)Nc1c(C)cccc1C (centres unmarked) [Bupivacaine hydrochloride]"
  quantitative_result: -1.136
- compound: "C#C[C@]1(OC(C)=O)CC[C@H]2[C@@H]3CCC4=CC(=NO)CC[C@@H]4[C@H]3CC[C@@]21CC (mixture of isomers) [Norgestimate]"
  quantitative_result: -2.463
- compound: "CC(C(=O)O)c1ccc(C(=O)c2cccs2)cc1 (centres unmarked) [Suprofen]"
  quantitative_result: -0.917
- compound: "Nc1nc2c(ncn2CCC(CO)CO)c(=O)[nH]1 [Penciclovir]"
  quantitative_result: -0.886
- compound: "CCc1nn(CCCN2CCN(c3cccc(Cl)c3)CC2)c(=O)n1CCOc1ccccc1 [Nefazodone HCl]"
  quantitative_result: -1.389
- compound: "Nc1c2c(nc3ccccc13)CCCC2O.O=C(O)/C=C\\C(=O)O (racemic) [Hydroxytacrine maleate (R,S)]"
  quantitative_result: 2.059
- compound: "N[C@@H](C(=O)N[C@@H]1C(=O)N2C(C(=O)O)=C(Cl)CC[C@H]12)c1ccccc1 [Loracarbef]"
  quantitative_result: -0.686
- compound: "CC(=O)Oc1cccc2c1C(=O)c1c(OC(C)=O)cc(C(=O)O)cc1C2=O [Diacerein]"
  quantitative_result: -4.175
- compound: "Cc1c(NC(=O)c2cccnc2)c(=O)n(-c2ccccc2)n1C [Nifenazone]"
  quantitative_result: 0.488
- compound: "CNCC(O)c1ccc(O)c(O)c1 (centres unmarked) [Racepinephrine HCl]"
  quantitative_result: -0.581
- compound: "COc1ccc(CCN)cc1OC [Homoveratrylamine]"
  quantitative_result: 0.521
- compound: "O=c1cc(-c2ccc(O)c(O)c2)oc2cc(O)cc(O)c12 [Luteolin]"
  quantitative_result: -0.024
- compound: "O=C1CC2(CCCC2)CC(=O)N1CCCCN1CCN(c2ncccn2)CC1 [Buspirone hydrochloride]"
  quantitative_result: -0.772
- compound: "Cc1ccc(S(=O)(=O)NC(=O)NN2CCCCCC2)cc1 [Tolazamide]"
  quantitative_result: -0.681
- compound: "CNCCc1ccccn1.CS(=O)(=O)O.CS(=O)(=O)O [Betahistine mesylate]"
  quantitative_result: -5.129

* * *

- target_of_assay: UniProt Q14973
- protocol_details: Screening fluorescent competitive Myrcludex B-FITC binding assay (96-well, 10 µM drug)
- condition_context: Prestwick library screen, 10 µM drug; B-score of Myrcludex B-FITC binding
Where a name gives a salt, the structure may show the parent alone.
quantity_kind: B-score binding assay

- compound: "Cl.N=C(N=C(N)N)N1CCOCC1 [Moroxidine hydrochloride]"
  target_of_assay: "UniProt Q14973"
  quantity_kind: "B-score binding assay"
  quantitative_result: 1.496
- compound: "Cc1cc(NC(=O)C2=C(O)c3ccccc3S(=O)(=O)N2C)no1"
  target_of_assay: "UniProt Q14973"
  quantity_kind: "B-score binding assay"
  quantitative_result: 0.145
- compound: "O=C([O-])[C@H]1/C(=C/CO)O[C@@H]2CC(=O)N21.[K+] [Clavulanate potassium salt]"
  target_of_assay: "UniProt Q14973"
  quantity_kind: "B-score binding assay"
  quantitative_result: 2.079
- compound: "C[N+]12CCC(CC1)C(OC(=O)C(O)(c1ccccc1)c1ccccc1)C2 (stereo not drawn) [Clidinium bromide]"
  target_of_assay: "UniProt Q14973"
  quantity_kind: "B-score binding assay"
  quantitative_result: 0.853
- compound: "Cc1onc(-c2c(F)cccc2Cl)c1C(=O)N[C@@H]1C(=O)N2[C@@H]1SC(C)(C)[C@@H]2C(=O)O [Flucloxacillin sodium]"
  target_of_assay: "UniProt Q14973"
  quantity_kind: "B-score binding assay"
  quantitative_result: 1.029
- compound: "CC[C@@]1(O)C(=O)OCc2c1cc1n(c2=O)Cc2cc3ccccc3nc2-1 [Camptothecine (S,+)]"
  target_of_assay: "UniProt Q14973"
  quantity_kind: "B-score binding assay"
  quantitative_result: 0.08
- compound: "CC[C@H]1OC(=O)[C@H](C)[C@@H](O[C@H]2C[C@@](C)(OC)[C@@H](O)[C@H](C)O2)[C@H](C)[C@@H](O[C@@H]2O[C@H](C)C[C@H](N(C)C)[C@H]2O)[C@](C)(O)C[C@@H](C)CN(C)[C@H](C)[C@@H](O)[C@]1(C)O"
  target_of_assay: "UniProt Q14973"
  quantity_kind: "B-score binding assay"
  quantitative_result: 2.513
- compound: "Nc1ccc(S(=O)(=O)[N-]c2cnc3ccccc3n2)cc1.[Na+] [Sulfaquinoxaline sodium salt]"
  target_of_assay: "UniProt Q14973"
  quantity_kind: "B-score binding assay"
  quantitative_result: 0.273
- compound: "NC[C@@H]1O[C@H](O[C@H]2[C@@H](O)[C@H](O[C@@H]3[C@@H](O)[C@H](N)C[C@H](N)[C@H]3O[C@H]3O[C@H](CN)[C@@H](O)[C@H](O)[C@H]3N)O[C@@H]2CO)[C@H](N)[C@@H](O)[C@@H]1O.O=S(=O)(O)O [Neomycin sulfate]"
  target_of_assay: "UniProt Q14973"
  quantity_kind: "B-score binding assay"
  quantitative_result: 0.524
- compound: "Cc1onc(-c2ccccc2)c1C(=O)N[C@@H]1C(=O)N2[C@@H]1SC(C)(C)[C@@H]2C(=O)[O-].[Na+] [Oxacillin sodium]"
  target_of_assay: "UniProt Q14973"
  quantity_kind: "B-score binding assay"
  quantitative_result: 0.083
- compound: "COC(=O)N/N=C/c1c[n+]([O-])c2ccccc2[n+]1[O-]"
  target_of_assay: "UniProt Q14973"
  quantity_kind: "B-score binding assay"
  quantitative_result: 0.674
- compound: "CCN(CC)CCNC(=O)c1cc(S(C)(=O)=O)ccc1OC [Tiapride hydrochloride]"
  target_of_assay: "UniProt Q14973"
  quantity_kind: "B-score binding assay"
  quantitative_result: 0.4
- compound: "O=C(O)c1ccccc1C(=O)Nc1ccc(S(=O)(=O)Nc2nccs2)cc1"
  target_of_assay: "UniProt Q14973"
  quantity_kind: "B-score binding assay"
  quantitative_result: 1.374
- compound: "CN(C)/N=N/c1[nH]cnc1C(N)=O"
  target_of_assay: "UniProt Q14973"
  quantity_kind: "B-score binding assay"
  quantitative_result: 1.762
- compound: "CC(NCCC(c1ccccc1)c1ccccc1)c1ccccc1 (stereo not drawn) [Fendiline hydrochloride]"
  target_of_assay: "UniProt Q14973"
  quantity_kind: "B-score binding assay"
  quantitative_result: 0.223
- compound: "C#C[C@]1(O)CC[C@H]2[C@@H]3CCC4=CCCC[C@@H]4[C@H]3CC[C@@]21C"
  target_of_assay: "UniProt Q14973"
  quantity_kind: "B-score binding assay"
  quantitative_result: 0.007
- compound: "Cc1cc2cc3c(C)cc(=O)oc3c(C)c2o1"
  target_of_assay: "UniProt Q14973"
  quantity_kind: "B-score binding assay"
  quantitative_result: 1.537
- compound: "NS(=O)(=O)Cc1noc2ccccc12 [Zonisamide]"
  target_of_assay: "UniProt Q14973"
  quantity_kind: "B-score binding assay"
  quantitative_result: 0.365
